Measured IC50, listed per entry for reference.
Test system: Plasmodium falciparum
Test protocol: In vitro anti-protozoal activity against Plasmodium falciparum Ghana strain
Format: functional, organism-based

1) COc1ccc(/C=C/c2ccc3ccccc3n2)c(OC)c1 : > 32 µM
2) OC(Cc1ccc2ccccc2n1)c1ccco1 (stereo not drawn) : > 32 µM

Recorded IC50 for "CN1CCN(C(=O)/C=C/c2ccc3ccccc3n2)CC1" , please?
> 32 µM

====

Measured IC50, listed per entry for reference.
System: Leishmania amazonensis
Test protocol: In vitro anti protozoal activity against Leishmania amazonensis strain MHOM/ET/L82/LV9 was determined
Assay type: functional, organism-based

1. Br/C=C/c1ccc2ccccc2n1 : 3 µM
2. O=[N+]([O-])c1ccc(/C=C/c2ccc3ccccc3n2)cc1 : > 32 µM
3. CN(C)c1ccc(/C=C/c2ccc3ccccc3n2)cc1 : 16 µM
4. Fc1ccccc1NCc1ccc2ccccc2n1 : > 32 µM
5. Fc1ccc(/C=C/c2ccc3ccccc3n2)cc1 : > 32 µM

Recorded IC50 for "O=[N+]([O-])/C=C/c1ccc2ccccc2n1" , please?
> 32 µM

Recorded IC50 for COc1ccc(C(O)Cc2ccc3ccccc3n2)cc1OC (configuration not stated) , please?
> 32 µM
